Taken from PubChem BioAssay AID2060488.

Tested on: 966289-007-R4-J1-PDC complex spheroid viability;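 further: spheroids exposed to the agents for seven days before readout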
Test: Anticancer human tumor 966289-007-R4-J1-PDC patient-derived pancreatic adenocarcinoma cell line growth inhibition [GQUAD]
Details: second compound 1 µM; first compound 0.316 µM; hits give low values
Checkbox rule: viability, T/C lower than 4% = fulfilled; viability, T/C not lower than 4% = not fulfilled.

• COc1ccc([C@@H](O)c2cc(-c3ncnc4cc(N5CCOCC5)ccc34)c(F)cc2Cl)nn1 + Cc1cnc(CNC(=O)c2c(=O)c3ccc(N4CCCN(C)CC4)nc3n3c2sc2ccccc23)cn1 = not fulfilled
• CC[C@@]1(O)C(=O)OCc2c1cc1n(c2=O)Cc2cc3c(CN(C)C)c(O)ccc3nc2-1 + CN(C)c1ccc(Nc2c3ccc(NC(=O)CCN4CCCC4)cc3nc3cc(NC(=O)CCN4CCCC4)ccc23)cc1 = fulfilled
• CC(C)(O)C1CCC(Nc2ccc3ncc(-c4cccc(C(F)(F)F)c4)n3n2)CC1 (stereo unspecified) + Cc1[nH]c2ccc(F)cc2c1-c1nc2c3cccnc3c3ncccc3c2[nH]1 = not fulfilled
• O=C(c1cc(Cc2n[nH]c(=O)c3ccccc23)ccc1F)N1CCN(C(=O)C2CC2)CC1 + CN(C)c1ccc(Nc2c3ccc(NC(=O)CCN4CCCC4)cc3nc3cc(NC(=O)CCN4CCCC4)ccc23)cc1 = not fulfilled
• CCc1c2c(nc3ccc(O)cc13)-c1cc3c(c(=O)n1C2)COC(=O)[C@]3(O)CC + Cc1cnc(CNC(=O)c2c(=O)c3ccc(N4CCCN(C)CC4)nc3n3c2sc2ccccc23)cn1 = fulfilled
• COc1cccc2c1C(=O)c1c(O)c3c(c(O)c1C2=O)CC(O)(C(=O)CO)CC3OC1CC(N)C(O)C(C)O1 (stereo unspecified) + Cc1[nH]c2ccc(F)cc2c1-c1nc2c3cccnc3c3ncccc3c2[nH]1 = fulfilled
• Cc1[nH]c2ccccc2c1CCNCc1ccc(/C=C/C(=O)NO)cc1 + Cc1[nH]c2ccc(F)cc2c1-c1nc2c3cccnc3c3ncccc3c2[nH]1 = not fulfilled
• CC[C@@]1(O)C(=O)OCc2c1cc1n(c2=O)Cc2cc3c(CN(C)C)c(O)ccc3nc2-1 + Cc1[nH]c2ccc(F)cc2c1-c1nc2c3cccnc3c3ncccc3c2[nH]1 = fulfilled
• CC(C)n1c(=O)n(C)c2cnc3cc(F)c(-c4ccc(OCCCN5CCCCC5)nc4)cc3c21 + Cc1cnc(CNC(=O)c2c(=O)c3ccc(N4CCCN(C)CC4)nc3n3c2sc2ccccc23)cn1 = fulfilled
• Cc1[nH]c2ccccc2c1CCNCc1ccc(/C=C/C(=O)NO)cc1 + Cc1cnc(CNC(=O)c2c(=O)c3ccc(N4CCCN(C)CC4)nc3n3c2sc2ccccc23)cn1 = fulfilled
• CC1COCCN1c1cc(C2(S(C)(=N)=O)CC2)nc(-c2ccnc3[nH]ccc23)n1 (stereo unspecified) + Cc1[nH]c2ccc(F)cc2c1-c1nc2c3cccnc3c3ncccc3c2[nH]1 = not fulfilled
• CC1COCCN1c1cc(C2(S(C)(=N)=O)CC2)nc(-c2ccnc3[nH]ccc23)n1 (stereo unspecified) + Cc1cnc(CNC(=O)c2c(=O)c3ccc(N4CCCN(C)CC4)nc3n3c2sc2ccccc23)cn1 = not fulfilled
• CC1COCCN1c1cc(C2(S(C)(=N)=O)CC2)nc(-c2ccnc3[nH]ccc23)n1 (stereo unspecified) + CN(C)c1ccc(Nc2c3ccc(NC(=O)CCN4CCCC4)cc3nc3cc(NC(=O)CCN4CCCC4)ccc23)cc1 = not fulfilled
• COc1cc(C2c3cc4c(cc3C(OC3OC5COC(C)OC5C(O)C3O)C3COC(=O)C23)OCO4)cc(OC)c1O (stereo unspecified) + Cc1cnc(CNC(=O)c2c(=O)c3ccc(N4CCCN(C)CC4)nc3n3c2sc2ccccc23)cn1 = not fulfilled
• Cn1ncnc1[C@H]1c2n[nH]c(=O)c3cc(F)cc(c23)N[C@@H]1c1ccc(F)cc1 + Cc1[nH]c2ccc(F)cc2c1-c1nc2c3cccnc3c3ncccc3c2[nH]1 = not fulfilled
• C#Cc1c(F)ccc2cc(O)cc(-c3ncc4c(N5CC6CCC(C5)N6)nc(OCC56CCCN5CC(F)C6)nc4c3F)c12 (stereo unspecified) + CN(C)c1ccc(Nc2c3ccc(NC(=O)CCN4CCCC4)cc3nc3cc(NC(=O)CCN4CCCC4)ccc23)cc1 = not fulfilled
• O=C(NO)c1cnc(N2CCN(S(=O)(=O)c3ccc4ccccc4c3)CC2)nc1 + CN(C)c1ccc(Nc2c3ccc(NC(=O)CCN4CCCC4)cc3nc3cc(NC(=O)CCN4CCCC4)ccc23)cc1 = not fulfilled
• C=CCn1c(=O)c2cnc(Nc3ccc(N4CCN(C)CC4)cc3)nc2n1-c1cccc(C(C)(C)O)n1 + Cc1[nH]c2ccc(F)cc2c1-c1nc2c3cccnc3c3ncccc3c2[nH]1 = not fulfilled
• C=CCn1c(=O)c2cnc(Nc3ccc(N4CCN(C)CC4)cc3)nc2n1-c1cccc(C(C)(C)O)n1 + Cc1cnc(CNC(=O)c2c(=O)c3ccc(N4CCCN(C)CC4)nc3n3c2sc2ccccc23)cn1 = fulfilled
• Nc1ccn(C2OC(CO)C(O)C2(F)F)c(=O)n1 (stereo unspecified) + Cc1cnc(CNC(=O)c2c(=O)c3ccc(N4CCCN(C)CC4)nc3n3c2sc2ccccc23)cn1 = fulfilled
• CC(C)n1c(=O)n(C)c2cnc3cc(F)c(-c4ccc(OCCCN5CCCCC5)nc4)cc3c21 + CN(C)c1ccc(Nc2c3ccc(NC(=O)CCN4CCCC4)cc3nc3cc(NC(=O)CCN4CCCC4)ccc23)cc1 = not fulfilled
